Where do the numbers come from? From ChEMBL document CHEMBL4368855.

System: HepG2
Assay: Up regulation of LDLR gene expression in human HepG2 cells measured after 6 hrs by qRT-PCR analysis
Type: functional, cell-based
Settings: HepG2, 6 h
EC50 strictly under 500 nM means label 1; at 500 nM or over means label 0.

# STRUCTURE STRING, ASSIGNED CATEGORY
records = [
    ("CC(C)COC(=O)NC[C@@H]1CC[C@H]2[C@H](COc3ccc(NC(=O)c4ccc(C(F)(F)F)cc4)cc3C(=O)N2C)O1", "label 1"),
    ("CN1C(=O)c2cc(NC(=O)c3ccc(C(F)(F)F)cc3)ccc2OC[C@@H]2O[C@H](CNC(=O)[C@@H]3CCCO3)CC[C@@H]21", "label 0"),
    ("CN1C(=O)c2cc(NC(=O)c3ccc(C(F)(F)F)cc3)ccc2OC[C@@H]2O[C@H](CNc3nnc(C4CCC4)o3)CC[C@@H]21", "label 0"),
]
